Quick reference for A450 with SNAP25 197 among some binders
target_under_test: GST-SNAP25 197 (UniProt P60880)
Sequence (P60880 1-197 limits assumed): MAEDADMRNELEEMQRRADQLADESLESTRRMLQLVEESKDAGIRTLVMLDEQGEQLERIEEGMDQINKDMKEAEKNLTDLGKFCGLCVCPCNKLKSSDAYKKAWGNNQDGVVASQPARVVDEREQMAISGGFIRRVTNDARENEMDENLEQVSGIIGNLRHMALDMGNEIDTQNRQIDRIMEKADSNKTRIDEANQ
Please state the value as a number alone, without comment.

Data request, read-out A450 with SNAP25 197, for D3 (antibody, V domains shown) VH: EVQLEESGGGLVQPGGSLKLSCAASGFTFSNYGMSWVRQTPDKRLELVATINSNGGTTYYPDSVKGRFTISRDNAKNTLYLQMSSLKSEDSAMYYCARDRDAMDYWGQGTSVTVSS VL: DVLMTQTPLSLPVSLGDQASISCRSSQSIVNSHGNTYLEWYLQKPGQSPKLLIYKVSNRFSGVPDRFSGSGSGTDFTLKISRVEAEDLGVYYCFQGSHVPWTFGGGTKLEIK 1.62

// moving on: another record for A450 with SNAP25 197
Data request, read-out A450 with SNAP25 197, for C4 (antibody, V domains shown) VH: DVKLQESGPGLVKPSQSLSLTCTVTGYSITSDYAWNWIRQFPGNKLEWMGYISYSVGTRYNPSLKSRISITRDTSKNQFFLLLKSVTNEDTATYFCARKGEYGFAYWGQGTLVTVSA VL: DIVMTQSPASLAVSLGQRATISCRASKSVSTSGYSYMHWYQQKPGQPPKLLIYLASNLESGVPARFSGSGSGTDFTLNIHPVEEEDAATYYCQHSRELPLTFGAGTKLELK 0.919
